FYI, the data here is from the supplement of paper PMC5998384.

Assign melting temperature to each entry below.
System: HeLa Kyoto
Experiment: melting temperature (median over replicates), in situ; higher = more thermally stable
Settings: cell cycle stage: mitosis
One number for each entry, in °C.

chain="MDGEEQQPPHEANVEPVVPSEASEPVPRVLSGDPQNLSDVDAFNLLLEMKLKRRRQRPNLPRTVTQLVAEDGSRVYVVGTAHFSDDSKRDVVKTIREVQPDVVVVELCQYRVSMLKMDESTLLREAQELSLEKLQQAVRQNGLMSGLMQMLLLKVSAHITEQLGMAPGGEFREAFKEASKVPFCKFHLGDRPIPVTFKRAIAALSFWQKVRLAWGLCFLSDPISKDDVERCKQKDLLEQMMAEMIGEFPDLHRTIVSERDVYLTYMLRQAARRLELPRASDAEPRKCVPSVVVGVVGMGHVPGIEKNWSTDLNIQEIMTVPPPSVSGRVSRLAVKAAFFGLLGYSLYWMGRRTASLVLSLPAAQYCLQRVTEARHK [TRABD]" tested_target="HeLa Kyoto" observation_type="melting temperature" recorded_value=50.2
chain="MAKGDPKKPKGKMSAYAFFVQTCREEHKKKNPEVPVNFAEFSKKCSERWKTMSGKEKSKFDEMAKADKVRYDREMKDYGPAKGGKKKKDPNAPKRPPSGFFLFCSEFRPKIKSTNPGISIGDVAKKLGEMWNNLNDSEKQPYITKAAKLKEKYEKDVADYKSKGKFDGAKGPAKVARKKVEEEDEEEEEEEEEEEEEEDE [HMGB3]" tested_target="HeLa Kyoto" observation_type="melting temperature" recorded_value=57.3
chain="MAASCVLLHTGQKMPLIGLGTWKSEPGQVKAAVKYALSVGYRHIDCAAIYGNEPEIGEALKEDVGPGKAVPREELFVTSKLWNTKHHPEDVEPALRKTLADLQLEYLDLYLMHWPYAFERGDNPFPKNADGTICYDSTHYKETWKALEALVAKGLVQALGLSNFNSRQIDDILSVASVRPAVLQVECHPYLAQNELIAHCQARGLEVTAYSPLGSSDRAWRDPDEPVLLEEPVVLALAEKYGRSPAQILLRWQVQRKVICIPKSITPSRILQNIKVFDFTFSPEEMKQLNALNKNWRYIVPMLTVDGKRVPRDAGHPLYPFNDPY [AKR1A1]" tested_target="HeLa Kyoto" observation_type="melting temperature" recorded_value=52.7
chain="MAAPSEVAAIAPGEGDGGGGGFGSWLDGRLEALGVDRAVYGAYILGILQEEEEEEKLDALQGILSAFLEEDSLLNICKEIVERWSETQNVVTKVKKEDEVQAIATLIEKQAQIVVKPRMVSEEEKQRKAALLAQYADVTDEEDEADEKDDSGATTMNIGSDKLLFRNTNVEDVLNARKLERDSLRDESQRKKEQDKLQRERDKLAKQERKEKEKKRTQRGERKR [CCDC43]" tested_target="HeLa Kyoto" observation_type="melting temperature" recorded_value=53.7
chain="MANEVIKCKAAVAWEAGKPLSIEEIEVAPPKAHEVRIKIIATAVCHTDAYTLSGADPEGCFPVILGHEGAGIVESVGEGVTKLKAGDTVIPLYIPQCGECKFCLNPKTNLCQKIRVTQGKGLMPDGTSRFTCKGKTILHYMGTSTFSEYTVVADISVAKIDPLAPLDKVCLLGCGISTGYGAAVNTAKLEPGSVCAVFGLGGVGLAVIMGCKVAGASRIIGVDINKDKFARAKEFGATECINPQDFSKPIQEVLIEMTDGGVDYSFECIGNVKVMRAALEACHKGWGVSVVVGVAASGEEIATRPFQLVTGRTWKGTAFGGWKSVESVPKLVSEYMSKKIKVDEFVTHNLSFDEINKAFELMHSGKSIRTVVKI [ADH5]" tested_target="HeLa Kyoto" observation_type="melting temperature" recorded_value=56.7
chain="MKLLTHNLLSSHVRGVGSRGFPLRLQATEVRICPVEFNPNFVARMIPKVEWSAFLEAADNLRLIQVPKGPVEGYEENEEFLRTMHHLLLEVEVIEGTLQCPESGRMFPISRGIPNMLLSEEETES [TRMT112]" tested_target="HeLa Kyoto" observation_type="melting temperature" recorded_value=51.4

Give melting temperature for each listed item.
1. MREYKVVVLGSGGVGKSALTVQFVTGSFIEKYDPTIEDFYRKEIEVDSSPSVLEILDTAGTEQFASMRDLYIKNGQGFILVYSLVNQQSFQDIKPMRDQIIRVKRYERVPMILVGNKVDLEGEREVSYGEGKALAEEWSCPFMETSAKNKASVDELFAEIVRQMNYAAQPNGDEGCCSACVIL [RAP2B]
2. MAQPPPDVEGDDCLPAYRHLFCPDLLRDKVAFITGGGSGIGFRIAEIFMRHGCHTVIASRSLPRVLTAARKLAGATGRRCLPLSMDVRAPPAVMAAVDQALKEFGRIDILINCAAGNFLCPAGALSFNAFKTVMDIDTSGTFNVSRVLYEKFFRDHGGVIVNITATLGNRGQALQVHAGSAKAAVDAMTRHLAVEWGPQNIRVNSLAPGPISGTEGLRRLGGPQASLSTKVTASPLQRLGNKTEIAHSVLYLASPLASYVTGAVLVADGGAWLTFPNGVKGLPDFASFSAKL [DECR2]
3. MSGCRVFIGRLNPAAREKDVERFFKGYGRIRDIDLKRGFGFVEFEDPRDADDAVYELDGKELCSERVTIEHARARSRGGRGRGRYSDRFSSRRPRNDRRNAPPVRTENRLIVENLSSRVSWQDLKDFMRQAGEVTFADAHRPKLNEGVVEFASYGDLKNAIEKLSGKEINGRKIKLIEGSKRHSRSRSRSRSRTRSSSRSRSRSRSRSRKSYSRSRSRSRSRSRSKSRSVSRSPVPEKSQKRGSSSRSKSPASVDRQRSRSRSRSRSVDSGN [SRSF5]
4. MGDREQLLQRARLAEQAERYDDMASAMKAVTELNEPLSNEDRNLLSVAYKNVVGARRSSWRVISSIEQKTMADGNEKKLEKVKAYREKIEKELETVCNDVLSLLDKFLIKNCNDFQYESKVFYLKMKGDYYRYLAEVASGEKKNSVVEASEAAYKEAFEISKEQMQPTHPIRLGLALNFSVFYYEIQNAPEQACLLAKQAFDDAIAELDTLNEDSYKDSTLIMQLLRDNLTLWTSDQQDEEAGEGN [YWHAH]
5. MAAPSGGWNGVGASLWAALLLGAVALRPAEAVSEPTTVAFDVRPGGVVHSFSHNVGPGDKYTCMFTYASQGGTNEQWQMSLGTSEDHQHFTCTIWRPQGKSYLYFTQFKAEVRGAEIEYAMAYSKAAFERESDVPLKTEEFEVTKTAVAHRPGAFKAELSKLVIVAKASRTEL [MYDGF]

1. 60.7
2. 52.1
3. 51.5
4. 52.6
5. 57.7

====

Test system: HeLa Kyoto
Test: solubility in G1/S (NP-40 vs SDS abundance) (log2 ratio); higher = more soluble
Conditions: cell cycle stage: G1/S
The recorded solubility in G1/S (log2) of each item maps onto one of these classes: low value (below 0.1), medium value (0.1 to below 0.3), high value (0.3 or more)

Some solved entries appear below for comparison.
chain="MVVLSVPAEVTVILLDIEGTTTPIAFVKDILFPYIEENVKEYLQTHWEEEECQQDVSLLRKQAEEDAHLDGAVPIPAASGNGVDDLQQMIQAVVDNVCWQMSLDRKTTALKQLQGHMWRAAFTAGRMKAEFFADVVPAVRKWREAGMKVYIYSSGSVEAQKLLFGHSTEGDILELVDGHFDTKIGHKVESESYRKIADSIGCSTNNILFLTDVTREASAAEEADVHVAVVVRPGNAGLTDDEKTYYSLITSFSELYLPSST [ENOPH1]" tested_target="HeLa Kyoto" group="medium value"
chain="MAPKFPDSVEELRAAGNESFRNGQYAEASALYGRALRVLQAQGSSDPEEESVLYSNRAACHLKDGNCRDCIKDCTSALALVPFSIKPLLRRASAYEALEKYPMAYVDYKTVLQIDDNVTSAVEGINRMTRALMDSLGPEWRLKLPSIPLVPVSAQKRWNSLPSENHKEMAKSKSKETTATKNRVPSAGDVEKARVLKEEGNELVKKGNHKKAIEKYSESLLCSNLESATYSNRALCYLVLKQYTEAVKDCTEALKLDGKNVKAFYRRAQAHKALKDYKSSFADISNLLQIEPRNGPAQKLRQEVKQNLH [TOMM34]" tested_target="HeLa Kyoto" group="high value"
chain="MAAIAASEVLVDSAEEGSLAAAAELAAQKREQRLRKFRELHLMRNEARKLNHQEVVEEDKRLKLPANWEAKKARLEWELKEEEKKKECAARGEDYEKVKLLEISAEDAERWERKKKRKNPDLGFSDYAAAQLRQYHRLTKQIKPDMETYERLREKHGEEFFPTSNSLLHGTHVPSTEEIDRMVIDLEKQIEKRDKYSRRRPYNDDADIDYINERNAKFNKKAERFYGKYTAEIKQNLERGTAV [SYF2]" tested_target="HeLa Kyoto" group="medium value"

Which of the defined bands does the recorded solubility in G1/S (log2) of MAAPWASLRLVAPMWNGRIRGIHRLGAAVAPEGNQKKKRTILQFLTNYFYDVEALRDYLLQREMYKVHEKNRSYTWLEKQHGPYGAGAFFILKQGGAVKFRDKEWIRPDKYGHFSQEFWNFCEVPVEAVDAGDCDINYEGLDNLLRLKELQSLSLQRCCHVDDWCLSRLYPLADSLQELSLAGCPRISERGLACLHHLQNLRRLDISDLPAVSNPGLTQILVEEMLPNCEVVGVDWAEGLKSGPEEQPRDTASPVPA [ATP5SL] sit within?
medium value

Which of the defined bands does the recorded solubility in G1/S (log2) of MKAVVQRVTRASVTVGGEQISAIGRGICVLLGISLEDTQKELEHMVRKILNLRVFEDESGKHWSKSVMDKQYEILCVSQFTLQCVLKGNKPDFHLAMPTEQAEGFYNSFLEQLRKTYRPELIKDGKFGAYMQVHIQNDGPVTIELESPAPGTATSDPKQLSKLEKQQQRKEKTRAKGPSESSKERNTPRKEDRSASSGAEGDVSSEREP [DTD1] sit within?
medium value
